# experimental details: Oral bioavailability in Wistar Han rat at 3 mg/kg administered via gavage by LC-MS/MS analysis
# Format: ADME, organism-based
# measurement setup: in vivo
# cutoff 30% applies to bioavailability; >= gives class 1, < gives class 0

Field: example entries. Status: answers known.
[[record]]
compound = "CNC(=O)c1cc(C(=O)N[C@H]2[C@@H]3COC[C@@H]32)cc(C(CC#N)c2ccccc2)n1 (stereo partly specified)"
assigned_category = "class 1"

[[record]]
compound = "CNC(=O)c1cc(C(=O)N[C@H]2C[C@@H]2C)cc(Cc2cccc3[nH]ccc23)n1"
assigned_category = "class 1"

[[record]]
compound = "CNC(=O)c1cc(C(=O)N[C@H]2[C@@H]3COC[C@@H]32)cc(C(OC)c2ccccc2)n1 (stereo partly specified)"
assigned_category = "class 0"

[[record]]
compound = "CNC(=O)c1cc(C(=O)N[C@H]2C[C@@H]2C)cc([C@@H](O)c2ccccc2)n1"
assigned_category = "class 1"

[[record]]
compound = "CNC(=O)c1cc(C(=O)N[C@H]2[C@@H]3C[C@@H](O)C[C@@H]32)cc(C(OC)c2ccccc2)n1 (stereo partly specified)"
assigned_category = "class 1"


Would you kindly look at the next entry?
**Query** Decide: bioavailability of CNC(=O)c1cc(C(=O)NC2CC2)cc(Cc2ccccc2)n1 >= 30%?
**Result** class 0
